Where do these numbers come from? They come from patent US8440708B2.

target.or.system: human P2X2/3 receptor (Homo sapiens, UniProt P56373+Q9UBL9)
Construct: expressed in transfected cells; host or cells: CHO-K1
protocol.details: P2X3/P2X2/3 FLIPR (Fluorometric Imaging Plate Reader) Assay, P2X2/3
Type: cell-based
condition.details: CHO-K1 cells transfected with human P2X2/3; agonist α,β-meATP 5 μM; Table 1; read-out: P2X2/3 pKi (converted)
observable: Ki (µM)
Express your answer in µM, writing the number without its unit.

compound | obs.value
Cc1ccc(-c2cc(C(=O)NC(C)c3cnccn3)cc(-n3nncc3C)c2)cc1 (stereo not shown) [Compound 7] | 0.191

Query: So what Ki did Cc1ccc(-c2cc(C(=O)NC(C)c3cnccn3)cc(-n3ncnc3C(C)O)c2)cc1 (stereo not shown) [Compound 49] get with human P2X2/3 receptor (Homo sapiens, UniProt P56373+Q9UBL9)?
Result: 0.282

Query: So what Ki did CCCc1ncnn1-c1cc(C(=O)NCc2cnc(C)cn2)cc(-c2ccc(C)cn2)c1 [Compound 116] get with human P2X2/3 receptor (Homo sapiens, UniProt P56373+Q9UBL9)?
Result: 0.0851

Query: So what Ki did Cc1ccc(-c2cc(C(=O)NC(C)CN(C)C)cc(-n3ncnc3C(C)N(C)C)c2)cc1 (stereo not shown) [Compound 103] get with human P2X2/3 receptor (Homo sapiens, UniProt P56373+Q9UBL9)?
Result: 10

----------
Attribute: Ki
target.or.system: human P2X2/3 receptor (Homo sapiens, UniProt P56373+Q9UBL9)
Construct: expressed in transfected cells; host or cells: CHO-K1
protocol.details: P2X3/P2X2/3 FLIPR (Fluorometric Imaging Plate Reader) Assay, P2X2/3
Format: cell-based
condition.details: CHO-K1 cells transfected with human P2X2/3; agonist α,β-meATP 5 μM; Table 1; read-out: P2X2/3 pKi (converted)
Express your answer in µM, writing the number without its unit.

Worked set:
compound | Ki / µM
CCOCCc1ncnn1-c1cc(C(=O)NCc2cnc(C)cn2)cc(-c2ccc(C)cn2)c1 [Compound 149] | 7.24
Cc1ccc(-c2cc(C(=O)N[C@@H](C)CO)cc(-n3ncnc3-c3ccccc3)c2)nc1 [Compound 144] | 8.91
COCC(C)NC(=O)c1cc(-c2ccc(C)cc2)cc(-n2cncn2)c1 (stereo not shown) [Compound 2] | 10.2

Now let's try a different one.
Query: So what Ki did Cc1ccc(-c2cc(C(=O)NC(C)CO)cc(-n3ncnc3C(C)C)c2)c(F)c1 (stereo not shown) [Compound 34] get with human P2X2/3 receptor (Homo sapiens, UniProt P56373+Q9UBL9)?
Result: 0.427

----------
target.or.system: rat P2X3 receptor (Rattus norvegicus, UniProt P49654)
Construct: expressed in transfected cells; host or cells: CHO-K1
Sequence (P49654 1-397): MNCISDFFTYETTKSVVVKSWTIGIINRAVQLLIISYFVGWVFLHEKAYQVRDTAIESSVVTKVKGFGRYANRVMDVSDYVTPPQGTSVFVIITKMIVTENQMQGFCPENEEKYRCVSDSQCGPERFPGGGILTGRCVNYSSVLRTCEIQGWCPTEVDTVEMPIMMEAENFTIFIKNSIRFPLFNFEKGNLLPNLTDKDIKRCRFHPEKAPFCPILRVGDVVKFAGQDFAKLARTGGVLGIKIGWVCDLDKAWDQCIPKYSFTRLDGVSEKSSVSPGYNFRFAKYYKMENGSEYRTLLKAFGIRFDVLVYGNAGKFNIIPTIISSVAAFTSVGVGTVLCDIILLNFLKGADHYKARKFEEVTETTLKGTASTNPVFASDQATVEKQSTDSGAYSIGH
protocol.details: P2X3/P2X2/3 FLIPR (Fluorometric Imaging Plate Reader) Assay, P2X3
Type: cell-based
condition.details: CHO-K1 cells transfected with rat P2X3; agonist α,β-meATP 1 μM; Table 1; read-out: P2X3 pKi (converted)
Attribute: Ki
Express your answer in nM, writing the number without its unit.

Worked set:
compound | observable | result.unit | obs.value
CCCc1ncnn1-c1cc(C(=O)NC(C)c2cnccn2)cc(-c2ccc(Cl)cn2)c1 (stereo not shown) [Compound 110] | Ki | nM | 7.24
COCc1ncnn1-c1cc(C(=O)N[C@@H](C)CO)cc(-c2ccc(C)cc2)c1 [Compound 45] | Ki | nM | 12.9
Cc1ccc(-c2cc(C(=O)NC3CC3)cc(-n3ncnc3CC(C)C)c2)nc1 [Compound 130] | Ki | nM | 4.27

Query: Look up Ki: Cc1ccc(-c2cc(C(=O)N[C@@H](C)CO)cc(-n3nncc3C)c2)cc1 [Compound 13]
Result: 75.9

----------
Attribute: Ki
target.or.system: rat P2X3 receptor (Rattus norvegicus)
Construct: expressed in transfected cells; host or cells: CHO-K1
protocol.details: P2X3/P2X2/3 FLIPR (Fluorometric Imaging Plate Reader) Assay, P2X3
Assay type: cell-based
condition.details: CHO-K1 cells transfected with rat P2X3; agonist α,β-meATP 1 μM; Table 1; read-out: P2X3 pKi (converted)
Express your answer in nM, writing the number without its unit.

Worked set:
compound | observable | result.unit | obs.value
Cc1ccc(-c2cc(C(=O)NC3CC3)cc(-n3ncnc3C(C)N(C)C)c2)nc1 (centres unmarked) | Ki | nM | 27.5
Cc1ccc(-c2cc(C(=O)NC(C)CN(C)C)cc(-n3ncnc3C(C)N(C)C)c2)cc1 (centres unmarked) | Ki | nM | 724

Query: Look up Ki: Cc1ccc(-c2cc(C(=O)NC(C)CO)cc(-n3nncc3C(C)C)c2)c(F)c1 (centres unmarked)
Result: 5.75

Query: Look up Ki: Cc1ccc(-c2cc(C(=O)NCc3cnc(C)cn3)cc(-n3ncnc3C3CC3)c2)nc1
Result: 19.1

Query: Look up Ki: CCCc1ncnn1-c1cc(C(=O)NC2CC2)cc(-c2ccc(Cl)cn2)c1
Result: 10.2

----------
Attribute: Ki
target.or.system: human P2X2/3 receptor (Homo sapiens, UniProt P56373+Q9UBL9)
Construct: expressed in transfected cells; host or cells: CHO-K1
Sequence (Q9UBL9 1-471): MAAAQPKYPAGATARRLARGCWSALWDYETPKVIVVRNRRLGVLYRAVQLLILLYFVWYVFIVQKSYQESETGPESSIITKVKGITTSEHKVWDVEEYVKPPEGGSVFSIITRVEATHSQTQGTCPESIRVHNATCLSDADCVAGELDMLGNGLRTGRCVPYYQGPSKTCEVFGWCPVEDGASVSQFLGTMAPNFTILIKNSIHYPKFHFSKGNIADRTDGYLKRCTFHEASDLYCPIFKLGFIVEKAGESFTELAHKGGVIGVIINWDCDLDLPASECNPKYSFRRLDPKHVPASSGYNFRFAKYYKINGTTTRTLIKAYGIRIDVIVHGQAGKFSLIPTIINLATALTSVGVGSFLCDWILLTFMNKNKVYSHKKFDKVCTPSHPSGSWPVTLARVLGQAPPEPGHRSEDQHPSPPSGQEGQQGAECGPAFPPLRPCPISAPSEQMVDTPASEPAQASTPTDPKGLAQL
Sequence (P56373 1-397): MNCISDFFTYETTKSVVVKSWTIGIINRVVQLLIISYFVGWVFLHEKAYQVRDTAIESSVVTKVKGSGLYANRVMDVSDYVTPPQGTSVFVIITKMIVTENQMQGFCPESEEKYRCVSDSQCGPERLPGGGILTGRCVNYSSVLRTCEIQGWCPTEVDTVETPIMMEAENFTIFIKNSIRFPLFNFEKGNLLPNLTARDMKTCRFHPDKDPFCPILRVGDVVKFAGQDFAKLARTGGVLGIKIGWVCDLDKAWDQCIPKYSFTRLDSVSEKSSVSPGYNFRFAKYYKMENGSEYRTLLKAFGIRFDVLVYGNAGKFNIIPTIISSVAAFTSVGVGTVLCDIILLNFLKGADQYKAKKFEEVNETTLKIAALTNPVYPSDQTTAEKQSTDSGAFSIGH
protocol.details: P2X3/P2X2/3 FLIPR (Fluorometric Imaging Plate Reader) Assay, P2X2/3
Format: cell-based
condition.details: CHO-K1 cells transfected with human P2X2/3; agonist α,β-meATP 5 μM; Table 1; read-out: P2X2/3 pKi (converted)

Worked set:
molecule | target.or.system | observable | obs.value
CCOCCc1ncnn1-c1cc(C(=O)N[C@@H](C)CO)cc(-c2ccc(C)cn2)c1 [Compound 150] | human P2X2/3 receptor (Homo sapiens, UniProt P56373+Q9UBL9) | Ki | 10000 nM
Cc1ccc(-c2cc(C(=O)N[C@@H](C)c3cnccn3)cc(-n3ncnc3C(F)(F)F)c2)nc1 [Compound 180] | human P2X2/3 receptor (Homo sapiens, UniProt P56373+Q9UBL9) | Ki | 46.8 nM
CCc1ncnn1-c1cc(C(=O)NC(C)c2cnccn2)cc(-c2ccc(C)cn2)c1 (stereo not shown) [Compound 128] | human P2X2/3 receptor (Homo sapiens, UniProt P56373+Q9UBL9) | Ki | 257 nM

Now let's try a different one.
Query: So what Ki did Cc1ccc(-c2cc(C(=O)NCc3cnc(C)cn3)cc(-n3ncnc3CC(C)C)c2)nc1 [Compound 119] get with human P2X2/3 receptor (Homo sapiens, UniProt P56373+Q9UBL9)?
Result: 23.4 nM
